Type: physicochemical
condition context: method [a]: HPLC/LC-MS on reversed phase at pH 2.7, 0.1% formic acid in water / acetonitrile, gradient 10% to 95% acetonitrile
result type: log P

Recorded results for 5 compounds are shown here.
C#Cc1cc2cc(C3=NOC(C)(C(=O)NC(C)C)C3)ccc2nc1C#N (stereo not drawn)	2.77[a]
CC1(C(=O)NC2CCCC2)CC(c2ccc3ncc(Br)cc3c2)=NO1 (racemic)	3.29[a]
O=C(NC1CC1)C1(CC2CC2)CC(c2ccc3ncc(Br)cc3c2)=NO1 (racemic)	3.20[a]
C#Cc1cnc2ccc(C3=NOC(OC)(C(=O)NC4CC4)C3)cc2c1 (stereo not drawn)	2.08[a]
CC(C)NC(=O)C1(C)CC(c2ccc3ncc(NC(=O)OC(C)(C)C)cc3c2)=NO1 (racemic)	2.77[a]

Quote log P reported for O=C(NC1CC1)C12CC1C(c1ccc3ncc(Br)cc3c1)=NO2 (racemic) please. 2.50[a]

Quote log P reported for C#Cc1cnc2ccc(C3=NOC(C)(C(=S)NCc4cnc(C)cn4)C3)cc2c1 (stereo not drawn) please. 2.84[a]

Quote log P reported for CC(C)NC(=O)C1(C)ON=C(c2ccc3ncc(Br)cc3c2)C1C(F)(F)F (stereo not drawn) please. 3.71[a]

###

Assay type: physicochemical
condition context: method [a]: HPLC/LC-MS on reversed phase at pH 2.7, 0.1% formic acid in water and acetonitrile, linear gradient 10% to 95% acetonitrile
Log P listing for selected compounds.

Recorded results for 3 compounds are shown here.
CCC(C)NC(=O)C1(C(F)(F)F)CC(c2cc3cc(Br)cnc3c(F)c2F)=NO1 (stereo not shown)	4.04^[a]
CCn1cc(CNC(=O)C2(C)CC(c3cc4cc(Br)cnc4c(F)c3F)=NO2)cn1 (stereo not shown)	2.5^[a]
CCn1cc(CNC(=O)C2(C)CC(c3cc4cc(Br)cnc4c(F)c3F)=NO2)c(C)n1 (stereo not shown)	2.69^[a]

Attention now turns to another entry.
Quote Log P reported for CON(OC)C(=O)C1(C)CC(c2cc3cc(Br)cnc3c(F)c2F)=NO1 (stereo not shown) please. 2.92^[a]

###

System: Botrytis cinerea
protocol summary: In vivo preventive test on Botrytis cinerea (grey mould)
condition context: 500 ppm; gherkin plants sprayed 24 hours before contamination; grading 4-5 days after contamination vs control plants
result type: % of efficacy (protection) (%)
Just the number please, in %, no unit attached.

Recorded results for 4 compounds are shown here.
CCn1cc(CNC(=O)C2(C)CC(c3ccc4ncc(I)cc4c3)=NO2)c(C)n1 (centres unmarked)	100
C#Cc1cnc2ccc(C3=NOC(C)(C(=O)NC(C)(C)C#CCOC)C3)cc2c1 (centres unmarked)	88
C#Cc1cnc2ccc(C3=NOC(C)(C(=O)Nc4cn(CC)nc4C)C3)cc2c1 (centres unmarked)	100
CCOCCCNC(=O)C1(OC)CC(c2ccc3ncc(I)cc3c2)=NO1 (racemic)	98

Lab note: Botrytis cinerea assay, enter % of efficacy (protection) for CC1(C)OCC(CNC(=O)C2(C)CC(c3cc(Cl)c4ncc(Br)cc4c3)=NO2)O1 (centres unmarked) here 100

Lab note: Botrytis cinerea assay, enter % of efficacy (protection) for CCCn1cc(CNC(=O)C2(C)CC(c3cc(C)c4ncc(Br)cc4c3)=NO2)c(C)n1 (centres unmarked) here 100

Lab note: Botrytis cinerea assay, enter % of efficacy (protection) for C#Cc1cnc2ccc(C3=NOC(C)(C(=O)NCc4cn(CCC)nc4C)C3)cc2c1 (centres unmarked) here 100

Lab note: Botrytis cinerea assay, enter % of efficacy (protection) for C#Cc1cnc2ccc(C3=NOC(C)(C(=O)NCc4ccncc4)C3)cc2c1 (centres unmarked) here 100

Lab note: Botrytis cinerea assay, enter % of efficacy (protection) for C#Cc1cnc2ccc(C3=NOC(C)(C(=O)NCc4cc(Cl)cc(Cl)c4)C3)cc2c1 (centres unmarked) here 74

Lab note: Botrytis cinerea assay, enter % of efficacy (protection) for C#Cc1cnc2ccc(C3=NOC(CC)(C(=O)NC4CCC4)C3)cc2c1 (racemic) here 97
